Target Under Test: T1, XPF-Δnuc (HhH2 domain) (Sulfolobus solfataricus P2, UniProt Q7LXL5 =M+148-233, internal_change)
T1 sequence: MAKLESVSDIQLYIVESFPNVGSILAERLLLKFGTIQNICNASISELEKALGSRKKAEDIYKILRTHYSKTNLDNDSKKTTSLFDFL
Protocol Description: FRET
Property Measured: Kd (µM)
One number for each entry, in µM.

Looking up Flap-13 (structured_DNA, amino-C6-dT at T9 of B strand; internal fluorescein-dT at T10 of C strand) DNA 1: AGCCCGACAGCAGTCAGAGCTTGCTAGGACGGACGGT DNA 2: ACCGTCCGTCCTAGCAAGCATTTTTTT DNA 3: TCTGACTGCTGTCGGGCT , I found its Kd recorded as 8

The reported numbers originate from paper PMC2836553.
